- TARGET_OR_SYSTEM: dimeric human IgG-lambda (Southern Biotech, Birmingham AL)
- PROTOCOL_TEXT: BLI (ForteBio), biotinylated ligand on sensor, 1:1 fit
pKd: −log10 of the molar value.
QUANTITY_KIND: pKd

>>> recorded_value("affinity ligand SEQ ID NO: 91 (designed binder, biotinylated (AviTag system)) MGGGGSAAAGDEAQRWENQGAAYAARGDYDRAIEYYGRALELDPNNAWAWWELGVAYAARGDYDRAIEYYERALELDPDDATAWSRLGHAYAARGDYDRAIEYYERALELDPENETARYLLEHARRARQGQAGQGGGSGLNDIFEAQKIEWHECHHHHHH")
"> 9.00"

Item: affinity ligand SEQ ID NO: 93 (designed binder, biotinylated (AviTag system)) MGGGGSAAAGDEAQRWENQGAAYAARGDYDRAIEYYERALELDPNNAWAWWELGVAYAARGDFDRAIEYYERALELDPDDATVWSRLGHAYAARGDYDRAIEYYERALELDPVDETARYLLEHARRARQGQAGQGGGSGLNDIFEAQKIEWHECHHHHHH | pKd: > 9.00

affinity ligand SEQ ID NO: 85 (designed binder, biotinylated (AviTag system)) MGGGGSAAAGDEAERWDYLGAAYAARGDYDRAIEYYQRALELDPNNAWAWWDLGLAYAARGDYDRAIEYYQRALELDPNNAVAWFRLGWAYAARGDYDRAIEYYQRALELDPNNELARSELENARRARRGQAGQGGGSGLNDIFEAQKIEWHECHHHHHH yielded pKd of > 9.00
